# protocol: viability loss of HPDE-C7K cells – cell-based, fluorescence, HTS, primary screen (AID 431);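 note: 0% = DMSO solvent wells and 100% = doxorubicin-treated wells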
# measurement-setup: HPDE-C7K KRASV12 cells, Alamar Blue viability, 48 h; at 10 µM
In all, about 63,000 compounds went through this assay and about 1,100 (1.7%) were called active.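 Rule for the calls: active = compounds whose percent cytotoxicity in the single-dose primary screen, scaled between solvent and toxic-drug controls, exceeds 50; inactive = the rest.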 This excerpt belongs to a sample that is enriched for actives. Potency and affinity values are given separately.
Entry note: the call must match one of yes (1) for active, no (0) for inactive

Reference set, count: 4
| compound | class-assignment |
| --- | --- |
| O=C(CSCc1ccccc1)NC1CCSC1=O (configuration not stated) | no (0) |
| CCOC(=O)NC(Nc1ncccn1)(C(F)(F)F)C(F)(F)F | no (0) |
| COc1ccc(CC(C)N2CCN(c3ccccc3OC)CC2)cc1OC (configuration not stated) | no (0) |
| CCN1CCN(C(=O)C2CCN(Cc3nc(-c4cccc(Cl)c4)oc3C)CC2)CC1 | no (0) |

In: Please share the test call associated with Cc1oc(-c2cccc(Cl)c2)nc1CN1CCC(C(=O)N2CCN(c3ccccn3)CC2)CC1 .
Out: no (0)

In: Status in this test for Cc1oc(-c2cccc(Cl)c2)nc1CN1CCC(C(=O)N2CCN(c3ccccc3F)CC2)CC1 ?
Out: yes (1)

In: I'd appreciate the recorded outcome for Cc1ccccc1-c1nc(CS(=O)(=O)CC(=O)NCc2ccc3c(c2)OCO3)c(C)o1 from this test.
Out: no (0)

###

# protocol: viability loss of HPDE-C7K cells – cell-based, fluorescence, HTS, primary screen (AID 431);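 note: 0% = DMSO solvent wells and 100% = doxorubicin-treated wells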
# measurement-setup: HPDE-C7K KRASV12 cells, Alamar Blue viability, 48 h; at 10 µM
About 1,100 (1.7%) of roughly 63,000 compounds were called active.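 How the source made its calls: active means compounds whose percent cytotoxicity in the single-dose primary screen, scaled between solvent and toxic-drug controls, exceeds 50; inactive means the rest.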 What follows is part of a selection rich in actives, with near analogues and random picks from the rest. Measured potencies and affinities stand elsewhere.
Form entry, call: pick from active, inactive

| compound | class-assignment |
| --- | --- |
| O=C(CSc1nc(-c2ccccc2)cc(=O)[nH]1)N1CCOCC1 | inactive |
| COc1cccc(CN(C)CC(=O)NC(=O)NCc2ccco2)c1 | inactive |
| CSC1=C(C#N)C(C)C2=C(CC(C)(C)CC2=O)N1 (stereo unspecified) | inactive |
| Cn1c(=O)c2c(SCC(=O)N3CCC(Cc4ccccc4)CC3)nc(C3CC3)nc2n(C)c1=O | inactive |
| O=S(=O)(NCCO)c1cccc2cccnc12 | inactive |

In: For this compound, state the assay outcome: CCSc1nnc(NC(=O)NC(CC)(C(F)(F)F)C(F)(F)F)s1
Out: inactive

In: What did the test return for CCn1ncc(C2=NOC(C(=O)NCc3ccccc3)C2)c1C (stereo unspecified) ?
Out: inactive

In: In this assay, the call recorded for Cc1cc(C)c2c(CN3CCN(C/C=C/c4ccccc4)CC3)cc(=O)oc2c1 was what?
Out: active

In: Record lookup: outcome of this test for CCOC(=O)N1CCN(C(=O)c2cc(-c3ccc(OCC)cc3)nc3ccccc23)CC1 ?
Out: active

In: Assay outcome for Cc1cc(NC(=O)c2cnn3c(C(F)F)cc(C4CC4)nc23)no1 : what was it?
Out: inactive

In: Test call, this compound: CCC(NC(=O)Nc1nccs1)(C(F)(F)F)C(F)(F)F
Out: inactive

###

# protocol: viability loss of HPDE-C7K cells – cell-based, fluorescence, HTS, primary screen (AID 431);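 note: 0% = DMSO solvent wells and 100% = doxorubicin-treated wells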
# measurement-setup: HPDE-C7K KRASV12 cells, Alamar Blue viability, 48 h; at 10 µM
The campaign covered roughly 63,000 compounds. About 1,100 (1.7%) were called active.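 Rule for the calls: active = compounds whose percent cytotoxicity in the single-dose primary screen, scaled between solvent and toxic-drug controls, exceeds 50; inactive = the rest.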 Only a selection was taken, and actives are over-represented in it overall. Results with a measured potency or affinity are listed apart.
Outcome field: choose from active, inactive

Answered cases to consult:
| molecule | class-assignment |
| --- | --- |
| Cn1c(NCc2ccco2)nc2c1c(=O)n(Cc1ccc(Cl)c(Cl)c1)c(=O)n2C | inactive |
| Cn1c(NCc2ccccc2)nc2c1c(=O)n(Cc1ccc(Br)cc1)c(=O)n2C | inactive |
| C=CCN1C(=Nc2ccccc2)SC/C1=C\C(=O)OC | inactive |
| CCCOC(=O)c1ccc(OC(=O)c2ccco2)cc1 | inactive |
| CN(Cc1ccccc1)C(=O)Nc1ccccc1 | inactive |

In: Each molecule tested received a call. Report the one for O=C1CC(c2ccco2)CC(O)=C1C=NCCO (configuration not stated) .
Out: inactive

In: // return assay outcome for Cc1ccc(NC(=O)c2cc(NC(=O)c3ccco3)ccc2N2CCCCC2)cc1
Out: inactive

In: How did this test come out for COC(=O)c1ccccc1NC(=O)CSc1nc(-c2ccco2)cc(C(F)(F)F)n1 ?
Out: active

In: Dear colleague, could you share the recorded outcome for COC(=O)c1ccc(C(=O)OC)c(NC(=O)CSc2nc(-c3ccco3)cc(C(F)(F)F)n2)c1 when you have a moment?
Out: inactive

In: Status in this test for O=C(c1cc2cc(Br)ccc2oc1=O)N1CCN(c2ccccn2)CC1 ?
Out: inactive

In: Test call for this molecule, please: FC(F)(F)c1cccc(CN2CCCCCC2)c1
Out: inactive

###

# protocol: viability loss of HPDE-C7K cells – cell-based, fluorescence, HTS, primary screen (AID 431);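 note: 0% = DMSO solvent wells and 100% = doxorubicin-treated wells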
# measurement-setup: HPDE-C7K KRASV12 cells, Alamar Blue viability, 48 h; at 10 µM; active compounds read high
In all, about 63,000 compounds went through this assay and about 1,100 (1.7%) were called active. This excerpt belongs to a sample that is enriched for actives. Measured potencies and affinities stand elsewhere.
endpoint: cytotoxicity (%)
Reply numerically in %, unit not repeated.

Here's what some known entries look like.
| compound | endpoint | quantitative-result |
| --- | --- | --- |
| CN(C)S(=O)(=O)c1ccc(C(=O)Nc2ccc(Cl)cc2)cc1 | cytotoxicity | 1.5 |
| CC1CCCCN1S(=O)(=O)c1ccc(NC(=O)c2cccc(-n3cnnn3)c2)cc1 (configuration not stated) | cytotoxicity | 20.3 |
| CC1CCc2nc(NC(=O)CN3CCN(Cc4ccc5c(c4)OCO5)CC3)sc2C1 (configuration not stated) | cytotoxicity | 56.9 |
| CC1=C(C(=O)Nc2cccc(C)n2)C(c2ccc3c(c2)OCO3)C2=C(CC(c3ccco3)CC2=O)N1 (configuration not stated) | cytotoxicity | 7.4 |
| O=c1oc(-c2cc3ccccc3o2)nc2sc3c(c12)CCCC3 | cytotoxicity | 57.9 |
| Cc1nnc(NC(=O)c2ccc(S(=O)(=O)N3CCCCCC3)cc2)o1 | cytotoxicity | 6.5 |

In: Quick one: cytotoxicity for CC1CCc2nc(NC(=O)CN3CCN(c4ccccc4)CC3)sc2C1 (configuration not stated) ?
Out: -5.6

In: Tell me the measured cytotoxicity of CCOC(=O)Cn1c(=O)n(Cc2ccco2)c(=O)c2ccc(C(=O)NCCc3ccccc3)cc21 , please.
Out: 7.3

###

# protocol: viability loss of HPDE-C7K cells – cell-based, fluorescence, HTS, primary screen (AID 431);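 note: 0% = DMSO solvent wells and 100% = doxorubicin-treated wells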
# measurement-setup: HPDE-C7K KRASV12 cells, Alamar Blue viability, 48 h; at 10 µM; active compounds read high
The whole screen tested about 63,000 compounds, of which about 1,100 (1.7%) were called active. This is one part of a sample in which actives are shown more often than they occur. Measured potencies and affinities stand elsewhere.
endpoint: cytotoxicity (%)
Report as a plain number; the unit % is understood.

In: GET /values?readout=cytotoxicity&item= N#CC1=C(N)Oc2c(ccc3cccnc23)C1c1cccnc1 (stereo not given)
Out: 42.1

In: Any idea what cytotoxicity was measured for O=S(=O)(c1ccc(-c2ccccc2)cc1)N1CCOCC1 ?
Out: 3.5

###

# protocol: viability loss of HPDE-C7K cells – cell-based, fluorescence, HTS, primary screen (AID 431);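 note: 0% = DMSO solvent wells and 100% = doxorubicin-treated wells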
# measurement-setup: HPDE-C7K KRASV12 cells, Alamar Blue viability, 48 h; at 10 µM; active compounds read high
In all, about 63,000 compounds went through this assay and about 1,100 (1.7%) were called active. Shown is part of a subset that was picked to be rich in actives. Entries with a potency or affinity are not part of this list.
endpoint: cytotoxicity (%)
All answers are understood in %, so give the number only.

Example compounds with recorded cytotoxicity:
| compound | endpoint | quantitative-result |
| --- | --- | --- |
| Clc1ccc(-c2nnc3sc(Cc4cccs4)nn23)c(Cl)c1 | cytotoxicity | -3.4 |
| CCCCS(=O)(=O)c1sc2nc3c(cc2c1N)CCCC3 | cytotoxicity | -4.6 |
| CCOC(=O)c1sc(NC(=O)c2ccc(CC)s2)nc1C | cytotoxicity | 4.6 |

In: What value of measured cytotoxicity is listed for CCc1ccccc1NC(=O)CN(C)C(=O)CN1C(=O)NC2(CCCCCC2)C1=O ?
Out: 2.1

In: Fill in: cytotoxicity of O=C(Nc1ccccc1N1CCN(C(=O)c2ccc(Cl)cc2)CC1)c1cc2ccccc2o1 is ___
Out: 13.1

In: Could you share which cytotoxicity value was measured for CC(=O)N1CCc2c(sc(NC(=O)CN3C(=O)CCC3=O)c2C(N)=O)C1 ?
Out: 0.3

In: Need cytotoxicity, item CCOC(=O)N1CCN(Cc2nc3c(c(=O)[nH]c(=O)n3C)n2CCCc2ccccc2)CC1
Out: -0.5

In: Item under review: O=C(Nc1ccc(N2CCN(C(=O)c3ccco3)CC2)c(Cl)c1)c1cccs1 . Reported cytotoxicity?
Out: -1
